Tested on: OVCAR-3 ovarian
Experimental Details: NCI-60 one-dose screen, 48 h
Measurement Setup: 10 µM unless noted
Procedure: Growth inhibition of the OVCAR-3 human tumor cell line is measured as a screen for anti-cancer activity. Cells are grown in 96 well plates and exposed to the test compound for 48 hours. Compounds are tested at a single concentration, which is 10^-5 M for most compounds. The reported endpoint is percent growth (GI% or GIPRCNT), where numbers from 0 - 100% represent growth inhibition, and numbers from -100% - 0 represent cell death. For example, a value of 40 represents 60% growth inhibition. […]
The panel holds about 83,000 compounds, 20% with a hit somewhere; the sample as a whole holds those more often. Calls of active or inactive are those of the source. How the source made its calls: active means growth percent below 10; inactive means the rest.
Allowed answers: 1 (active), -1 (inactive)

Solved cases (3 shown):
- Molecule: "c1cncc(CNc2ccccc2-c2nnc(Nc3ccc4c(c3)OCO4)o2)c1"
  Classification: 1
- Molecule: "c1ccc2cc(C[n+]3ccn(CCCCCCCn4cc[n+](Cc5ccc6ccccc6c5)c4)c3)ccc2c1"
  Classification: -1
- Molecule: "Cc1c(C(N)=O)sc2ncn(Cc3ccccc3)c(=O)c12"
  Classification: -1

Q: Which outcome did this test record for the molecule `Cc1nc(N)[nH]c(=O)c1C` ?
Ans: -1

Q: Which outcome did this test record for the molecule `COc1cccc(CCC2C(=O)CCCC2=O)c1` ?
Ans: -1

Q: Which outcome did this test record for the molecule `C[C@]12CC[C@@H]3c4ccc(O)c([N+](=O)[O-])c4CC[C@H]3[C@@H]1CC[C@@H]2NS(=O)(=O)c1ccc(C(F)(F)F)cc1` ?
Ans: -1

Q: Which outcome did this test record for the molecule COc1ccc(C2CC(c3ccc(OC)c(OC)c3)=NN2C(=O)c2cc(OC)c(OC)c(OC)c2)cc1 (stereo not given) ?
Ans: 1

Q: Which outcome did this test record for the molecule `O=C1C(Cl)=C(N=Nc2c(Cl)c(O)c3ccccc3c2O)C(=O)c2ccccc21` ?
Ans: -1

Q: Which outcome did this test record for the molecule `CN1CCN(Cc2ccc(NC(=O)c3[nH]ncc3Nc3ccnc4ccnn34)cc2)CC1` ?
Ans: -1

Q: Which outcome did this test record for the molecule CC(O)c1nc2c(c(=O)n(C)c(=O)n2C)n1C (stereo not given) ?
Ans: -1
